We begin with a simple list: items and their reported log10(EC50).
# System: Vasopressin V2 receptor (Homo sapiens, UniProt P30518)
# Sequence (P30518 whole entry): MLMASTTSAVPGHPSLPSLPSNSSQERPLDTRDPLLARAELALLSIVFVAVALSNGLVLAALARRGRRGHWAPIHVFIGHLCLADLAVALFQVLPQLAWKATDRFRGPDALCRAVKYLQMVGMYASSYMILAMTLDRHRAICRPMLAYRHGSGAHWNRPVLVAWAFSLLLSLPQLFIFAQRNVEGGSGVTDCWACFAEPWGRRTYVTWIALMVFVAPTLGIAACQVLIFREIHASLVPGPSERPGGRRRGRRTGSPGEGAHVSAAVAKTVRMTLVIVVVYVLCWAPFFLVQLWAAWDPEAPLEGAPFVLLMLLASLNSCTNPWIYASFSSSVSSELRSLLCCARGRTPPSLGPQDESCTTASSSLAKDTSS
# Experiment description: Agonist activity at human vasopressin V2 receptor expressed in HEK293 cells assessed as increase in intracellular cAMP level by CRE-luciferase reporter gene assay
Values below are the log10 of the recorded EC50, with nM as the unit.

Some solved cases for reference:
Cc1cc(C(=O)N2CCCCc3ccccc32)ccc1CNC(=O)NCC(N)=O = 2.32
Cc1cc(C(=O)N2CCCC(F)(F)c3ccccc32)ccc1CNC(=O)N1CCC[C@H]1C(=O)N(C)C = 3.23
Cc1cc(C(=O)N2CCCCc3ccccc32)ccc1CNC(=O)NCC(=O)OC(C)(C)C = 2.08
COC(=O)[C@@H]1CCCN1C(=O)NCc1ccc(C(=O)N2CCCCc3ccccc32)cc1C = 2.00
Cc1cc(C(=O)N2CCCC(C)c3ccccc32)ccc1CNC(=O)N1CCC[C@H]1C(=O)N(C)C (some centres undefined) = 2.34

What value of measured log10(EC50) is listed for `CO[C@@H]1C[C@@H](C(=O)N(C)C)N(C(=O)NCc2ccc(C(=O)N3CCCCc4ccccc43)cc2C)C1` ? 0.67

# input compound: `Cc1cc(C(=O)N2CCc3cccn3-c3ccccc32)ccc1CNC(=O)N1CCC[C@H]1C(=O)N(C)C` ; wanted: its log10(EC50) 2.15

Sample `Cc1cc(C(=O)N2CCCCc3ccccc32)ccc1CNC(=O)N1C[C@H](OC(C)(C)C)C[C@H]1C(=O)N(C)C` — what was its log10(EC50)? 1.66

What log10(EC50) value was documented for this compound, `Cc1cc(C(=O)N2CCCCc3ccccc32)ccc1CNC(=O)Nc1ccccc1F` ? 1.48

Form field: reported log10(EC50) of `Cc1cc(C(=O)N2CCCCc3ccccc32)ccc1CNC(=O)N1CCC[C@H]1C(=S)N(C)C` 0.51

Entry `O=C(NCc1ccc(C(=O)N2CCCCc3ccccc32)c(F)c1)Nc1c(F)cccc1F` : reported log10(EC50) = ? 2.26

Entry under review: `COC1(OC)C[C@@H](C(=O)N(C)C)N(C(=O)NCc2ccc(C(=O)N3CCCCc4ccccc43)cc2C)C1` . Reported log10(EC50)? 1.30

// lookup log10(EC50) for `Cc1cc(C(=O)N2CCCCc3ccccc32)ccc1CNC(=O)NCC(=O)O` 2.26

Need log10(EC50) of `Cc1cc(C(=O)N2CCc3ccccc3-c3ccccc32)ccc1CNC(=O)N1CCC[C@H]1C(=O)N(C)C` , thanks. 1.92
